Data credit: PubChem BioAssay

MEASUREMENT NOTES: AGP1-GFP expression modulators, hit retest, confirmation, cell-based, flow cytometry, S. cerevisiae, cherry picks (AID 2273);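 further: median GFP channel fluorescence over the whole cell population gate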
PARTICULARS: S. cerevisiae AGP1-GFP strain, 3 h, at 10 µM
MEASUREMENT LABEL: GFP response, % of DMSO (%)
Answer with a number only, understood to be in %.

Oc1ccc(/C=N/Nc2nc(-c3cccnc3)nc3ccccc23)c(O)c1 101
Cc1cc(C)c(OCC(=O)Nc2nc(-c3ccccn3)cs2)c(C)c1 95.8
NC(=O)CSCc1c(Cl)cccc1Cl 97.2
COc1ccc(CCNC2=C(Cl)C(=O)N(CCc3ccc(OC)c(OC)c3)C2=O)cc1OC 101
CCNC(=O)/C(C#N)=C/c1c(N2CCOCC2)nc2ccccn2c1=O 102

GFP response, % of DMSO reading for `COc1ccc(-c2[nH]ncc2-c2ccc(Cl)cc2)c(O)c1` : 93.7

Sure, the documented GFP response, % of DMSO for `O=C1c2ccccc2C(=O)c2c([N+](=O)[O-])ccc(O)c21` is 106

GET /value?item= `O=C(COc1ccccc1)N1CCN(c2ncnc3c2cnn3-c2ccccc2)CC1` &field=GFP response, % of DMSO returns 97.3

// GFP response, % of DMSO lookup, molecule = `O=C(Nc1nnc(-c2ccc(F)cc2)o1)c1cccc([N+](=O)[O-])c1` , result: 97

Notebook: `COc1ccc(N2C(=O)C(Cl)=C(N(CCO)Cc3ccccc3)C2=O)cc1` , GFP response, % of DMSO read as 102

Measured GFP response, % of DMSO, `O=C(Nc1cc(Sc2ccccn2)cc([N+](=O)[O-])c1)c1cccc(F)c1` : 95.7

----------
MEASUREMENT NOTES: LAP4-GFP expression modulators in yeast, confirmation, cell-based, cherry picks, flow cytometry, mother/daughter gates (AID 2271);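 further: ratio of sample to DMSO plate mean so 100% equals DMSO level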
PARTICULARS: S. cerevisiae LAP4-GFP strain, 3 h, measured here: daughter cell gate response, at 10 µM, stronger effect = higher value, 100 means same as DMSO control
Reported GFP response relative to DMSO is given for each of the following molecules.
The response must be a number in % with no trailing unit.

Guide cases for GFP response relative to DMSO, answers given:
MOLECULE	OBS VALUE
CSc1nc2ccc(S(=O)(=O)N3CCCC3)cc2s1	128
Cc1cccc(CSCc2ccc(C(=O)NC(C)C)o2)c1	95.9
Cc1cc(OCc2ccc(C(=O)NN=C3CCCC3)cc2)ccc1Cl	116
COC(=O)c1ccc(/C=N\NC(=O)c2ccc(C)cc2Cl)cc1	94.4
COc1ccc2c(/C=C/c3cc[n+](C)cc3)c[nH]c2c1	152

Briefly, GFP response relative to DMSO measured for `CCN(Cc1ccccc1)S(=O)(=O)c1ccc(C(=O)Nc2nnc(C3CC3)o2)cc1` : 105

----------
MEASUREMENT NOTES: RPL19A-GFP modulators, yeast TOR pathway, confirmation, cell-based, S. cerevisiae, flow cytometry, cherry picks, mother/daughter gates (AID 2270)
PARTICULARS: S. cerevisiae RPL19A-GFP strain, 3 h, measured here: daughter cell gate, at 10 µM, stronger effect = lower value, 100 = same GFP as DMSO wells
MEASUREMENT LABEL: GFP response vs DMSO (%)
Quick reminder: number only, in %, skip the unit.

COMPOUND	UOM	GFP response vs DMSO
CCn1c(=O)c(C(=O)Nc2ccsc2C(=O)OC)c(O)c2ccccc21	%	101
Cc1onc(-c2ccccc2)c1C(=O)N1CCC(C)CC1	%	93.4
O=C(/C=C/c1c(F)cccc1Cl)c1ccc(F)cc1	%	104
O=C(COc1ccc(F)cc1Cl)Nc1nc(-c2ccccn2)cs1	%	94.7

In plain terms, `O=C(Nc1nc(-c2ccccc2)cs1)c1cccs1` has a documented GFP response vs DMSO of 94.2

Per the record, CC(=O)NC1(C(F)(F)F)C(=O)Nc2c1c(=O)[nH]c(=O)n2CCc1ccccc1 (stereo unspecified) has GFP response vs DMSO of 98.4

GFP response vs DMSO for `COc1ccc(OC)c(S(=O)(=O)ON2C(=O)c3ccccc3C2=O)c1` is 98.3

Lookup result for `O=C(N/N=C/c1ccc(Cl)cc1Cl)c1cccc(F)c1` ; measured GFP response vs DMSO: 92.7

get_value(item= CCc1ccc2c(c1)C1(NN=C(c3cccc4ccccc34)S1)C(=O)N2 (stereo unspecified) , readout=GFP response vs DMSO) returns 96.7

Please fill in: GFP response vs DMSO reported for `O=C(NCCCSc1ccccc1)c1cc(Cl)ccc1O` = 98

Noted for Cc1cccn2c(=O)c(/C=C(\C#N)C(=O)NCc3ccco3)c(N3CCCC(C)C3)nc12 (stereo unspecified) : its GFP response vs DMSO reads 99.1
